Hey, just so you know, these numbers are from the supplement of paper PMC11061612.

- Test system: NCI-H1792 (Lung Adenocarcinoma)
- PROTOCOL: Bliss excess, mean over the matrix (fraction); higher = more synergy;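 further: after 72 h of two-drug dosing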
For each record, write down the corresponding Bliss excess.
Answers are plain numbers.

Answered cases to consult:
{"columns": ["MOLECULE", "Bliss excess"],
 "data": [
  ["CN(C)CCCOc1ccc(-c2ccc3ncc4c(c3c2)n(C2CCOCC2)c(=O)n4C)cn1 [AZD0156] + O=C(c1cc(Cc2n[nH]c(=O)c3ccccc23)ccc1F)N1CCN(C(=O)C2CC2)CC1 [Olaparib] (first compound max 3 µM, partner max 3 µM)", 0.0848],
  ["COc1cccc(OCCCN)c1-c1cc(Nc2cnc(C#N)cn2)n[nH]1 [Prexasertib] + Cc1cc2ncnn2cc1Nc1ncc2c(n1)n(C1CCOCC1)c(=O)n2C [AZD7648] (first compound max 1 µM, 7x7, partner max 10 µM)", -0.0227]
]}

Return reported Bliss excess values for all items listed beneath this line.
1. CCc1c2c(nc3ccc(O)cc13)-c1cc3c(c(=O)n1C2)COC(=O)[C@]3(O)CC [SN-38] + O=C(c1cc(Cc2n[nH]c(=O)c3ccccc23)ccc1F)N1CCN(C(=O)C2CC2)CC1 [Olaparib] (first compound max 0.3 µM, 7x7, partner max 10 µM)
2. CN(CCO)CC[C@H](CSc1ccccc1)Nc1ccc(S(=O)(=O)NC(=O)c2ccc(N3CCC([C@@H](O)c4ccccc4-c4ccc(Cl)cc4)CC3)cc2)cc1S(=O)(=O)C(F)(F)F [AZD4320] + CS(=O)(=O)CCNCc1ccc(-c2ccc3ncnc(Nc4ccc(OCc5cccc(F)c5)c(Cl)c4)c3c2)o1 [Lapatinib] (first compound max 1 µM, 7x7, partner max 10 µM)
3. Cc1c2c(nn1C)CSCc1cc(n(C)n1)CSc1cc(c3ccccc3c1)OCCCc1c(C(=O)O)n(C)c3c-2c(Cl)ccc13 [AZD5991] + CS(=O)(=O)CCNCc1ccc(-c2ccc3ncnc(Nc4ccc(OCc5cccc(F)c5)c(Cl)c4)c3c2)o1 [Lapatinib] (first compound max 1 µM, 7x7, partner max 10 µM)
4. C=CCn1c(=O)c2cnc(Nc3ccc(N4CCN(C)CC4)cc3)nc2n1-c1cccc(C(C)(C)O)n1 [AZD1775] + O=C(c1cc(Cc2n[nH]c(=O)c3ccccc23)ccc1F)N1CCN(C(=O)C2CC2)CC1 [Olaparib] (first compound max 1 µM, partner max 10 µM)
5. NC1(C(=O)N[C@@H](CCO)c2ccc(Cl)cc2)CCN(c2ncnc3[nH]ccc23)CC1 [Capivasertib] + CCN(CCO)CCCOc1ccc2c(Nc3cc(CC(=O)Nc4cccc(F)c4)[nH]n3)ncnc2c1 [AZD2811] (first compound max 10 µM, 7x7, partner max 1 µM)

Reply text:
[0.0361, -0.0553, 0.0446, -0.0261, -0.0079]

---

For each record, write down the corresponding Bliss excess.
- Tested on: SR (Other Blood Carcinomas)
- PROTOCOL: Bliss excess, mean over the matrix (fraction); higher = more synergy
One number for each entry.

{"columns": ["COMPOUND", "MEASURED_VALUE"],
 "data": [
  ["CN(CCO)CC[C@H](CSc1ccccc1)Nc1ccc(S(=O)(=O)NC(=O)c2ccc(N3CCC([C@@H](O)c4ccccc4-c4ccc(Cl)cc4)CC3)cc2)cc1S(=O)(=O)C(F)(F)F [AZD4320] + C[C@@H](Nc1cc(F)cc(F)c1)c1cc(C(=O)N(C)C)cc2c(=O)cc(N3CCOCC3)oc12 [AZD8186] (first compound max 1 µM, 7x7, partner max 3 µM)", 0.0428]
]}

Return reported Bliss excess values for all items listed beneath this line.
1. C=CCn1c(=O)c2cnc(Nc3ccc(N4CCN(C)CC4)cc3)nc2n1-c1cccc(C(C)(C)O)n1 [AZD1775] + Nc1ccn([C@@H]2O[C@H](CO)[C@@H](O)C2(F)F)c(=O)n1 [Gemcitabine] (first compound max 1 µM, partner max 0.3 µM)
2. NC1(C(=O)N[C@@H](CCO)c2ccc(Cl)cc2)CCN(c2ncnc3[nH]ccc23)CC1 [Capivasertib] + CCN(CCO)CCCOc1ccc2c(Nc3cc(CC(=O)Nc4cccc(F)c4)[nH]n3)ncnc2c1 [AZD2811] (first compound max 10 µM, 7x7, partner max 1 µM)
3. NC1(C(=O)N[C@@H](CCO)c2ccc(Cl)cc2)CCN(c2ncnc3[nH]ccc23)CC1 [Capivasertib] + CC(=O)c1c(C)c2cnc(Nc3ccc(N4CCNCC4)cn3)nc2n(C2CCCC2)c1=O [Palbociclib] (first compound max 10 µM, 7x7, partner max 10 µM)
4. NC1(C(=O)N[C@@H](CCO)c2ccc(Cl)cc2)CCN(c2ncnc3[nH]ccc23)CC1 [Capivasertib] + COc1nnc2ccc(N3CCC(c4ccc(OCCN5CCN(C)C(=O)[C@H]5C)cc4)CC3)nn12 [AZD5153] (first compound max 10 µM, 7x7, partner max 1 µM)
5. COc1cccc2c1C(=O)c1c(O)c3c(c(O)c1C2=O)C[C@@](O)(C(=O)CO)C[C@@H]3O[C@H]1C[C@H](N)[C@H](O)[C@H](C)O1 [Doxorubicin] + Cc1cc2ncnn2cc1Nc1ncc2c(n1)n(C1CCOCC1)c(=O)n2C [AZD7648] (first compound max 1 µM, 7x7, partner max 10 µM)
6. Cc1c2c(nn1C)CSCc1cc(n(C)n1)CSc1cc(c3ccccc3c1)OCCCc1c(C(=O)O)n(C)c3c-2c(Cl)ccc13 [AZD5991] + C[C@@H]1COCCN1C2=NC(=NC(=C2)C3(CC3)[S@](=N)(=O)C)C4=C5C=CNC5=NC=C4 [AZD6738] (first compound max 1 µM, 7x7, partner max 10 µM)
7. CN(CCO)CC[C@H](CSc1ccccc1)Nc1ccc(S(=O)(=O)NC(=O)c2ccc(N3CCC([C@@H](O)c4ccccc4-c4ccc(Cl)cc4)CC3)cc2)cc1S(=O)(=O)C(F)(F)F [AZD4320] + Cn1cnc2c(F)c(Nc3ccc(Br)cc3Cl)c(C(=O)NOCCO)cc21 [Selumetinib] (first compound max 1 µM, 7x7, partner max 3 µM)

Reply text:
1. 0.0344
2. -0.0053
3. 0.0289
4. -0.0166
5. 0.0651
6. 0.0941
7. 0.0208

Return reported Bliss excess values for all items listed beneath this line.
1. C[C@@H]1COCCN1c1cc(C2([S@](C)(=N)=O)CC2)nc(-c2ccnc3[nH]ccc23)n1 [AZD6738] + O=C(c1cc(Cc2n[nH]c(=O)c3ccccc23)ccc1F)N1CCN(C(=O)C2CC2)CC1 [Olaparib] (first compound max 10 µM, 7x7, partner max 10 µM)
2. CC(=O)c1c(C)c2cnc(Nc3ccc(N4CCNCC4)cn3)nc2n(C2CCCC2)c1=O [Palbociclib] + CC1(C)CCC(CN2CCN(c3ccc(C(=O)NS(=O)(=O)c4ccc(NCC5CCOCC5)c([N+](=O)[O-])c4)c(Oc4cnc5[nH]ccc5c4)c3)CC2)=C(c2ccc(Cl)cc2)C1 [Venetoclax] (first compound max 10 µM, 7x7, partner max 1 µM)
3. N#Cc1cnc(Nc2cc(NC[C@H]3CNCCO3)c(C(F)(F)F)cn2)cn1 [SRA737] + CCc1c2c(nc3ccc(O)cc13)-c1cc3c(c(=O)n1C2)COC(=O)[C@]3(O)CC [SN-38] (first compound max 10 µM, 7x7, partner max 0.3 µM)
4. C=CCn1c(=O)c2cnc(Nc3ccc(N4CCN(C)CC4)cc3)nc2n1-c1cccc(C(C)(C)O)n1 [AZD1775] + C1CN(CCC1(C(=O)N[C@@H](CCO)C2=CC=C(C=C2)Cl)N)C3=NC=NC4=C3C=CN4 [Capivasertib] (first compound max 3 µM, partner max 3 µM)
5. C[C@@H](Oc1cc(-c2cnn(C3CCNCC3)c2)cnc1N)c1c(Cl)ccc(F)c1Cl [Crizotinib] + Cn1cnc2c(F)c(Nc3ccc(Br)cc3Cl)c(C(=O)NOCCO)cc21 [Selumetinib] (first compound max 10 µM, 7x7, partner max 10 µM)

Reply text:
1: 0.024; 2: -0.0245; 3: -0.0069; 4: 0.0013; 5: -0.0195

---

- System: PANC-08-13 (Pancreatic Carcinoma)
- PROTOCOL: Bliss excess, mean over the matrix (fraction); higher = more synergy
MEASURED_METRIC: Bliss excess
Give bare numbers.

Answered cases to consult:
{"columns": ["MOLECULE", "Bliss excess"],
 "data": [
  ["Cc1cc2ncnn2cc1Nc1ncc2c(n1)n(C1CCOCC1)c(=O)n2C [AZD7648] + CN(C)CCCOc1ccc(-c2ccc3ncc4c(c3c2)n(C2CCOCC2)c(=O)n4C)cn1 [AZD0156] (first compound max 10 µM, 7x7, partner max 1 µM)", -0.0359],
  ["CCc1c2c(nc3ccc(O)cc13)-c1cc3c(c(=O)n1C2)COC(=O)[C@]3(O)CC [SN-38] + O=C(c1cc(Cc2n[nH]c(=O)c3ccccc23)ccc1F)N1CCN(C(=O)C2CC2)CC1 [Olaparib] (first compound max 0.3 µM, 7x7, partner max 10 µM)", -0.0202],
  ["CN(CCO)CC[C@H](CSc1ccccc1)Nc1ccc(S(=O)(=O)NC(=O)c2ccc(N3CCC([C@@H](O)c4ccccc4-c4ccc(Cl)cc4)CC3)cc2)cc1S(=O)(=O)C(F)(F)F [AZD4320] + C=CCn1c(=O)c2cnc(Nc3ccc(N4CCN(C)CC4)cc3)nc2n1-c1cccc(C(C)(C)O)n1 [AZD1775] (first compound max 1 µM, partner max 1 µM)", -0.0019],
  ["CN(C)CCCOc1ccc(-c2ccc3ncc4c(c3c2)n(C2CCOCC2)c(=O)n4C)cn1 [AZD0156] + O=C(c1cc(Cc2n[nH]c(=O)c3ccccc23)ccc1F)N1CCN(C(=O)C2CC2)CC1 [Olaparib] (first compound max 3 µM, partner max 3 µM)", -0.0215],
  ["COc1nnc2ccc(N3CCC(c4ccc(OCCN5CCN(C)C(=O)[C@H]5C)cc4)CC3)nn12 [AZD5153] + CN(CC[C@H](CSC1=CC=CC=C1)NC2=C(C=C(C=C2)S(=O)(=O)NC(=O)C3=CC=C(C=C3)N4CCC(CC4)[C@H](C5=CC=CC=C5C6=CC=C(C=C6)Cl)O)S(=O)(=O)C(F)(F)F)CCO [AZD4320] (first compound max 1 µM, 7x7, partner max 1 µM)", 0.0589]
]}

Return reported Bliss excess values for all items listed beneath this line.
1. Cc1cc2ncnn2cc1Nc1ncc2c(n1)n(C1CCOCC1)c(=O)n2C [AZD7648] + C=CCn1c(=O)c2cnc(Nc3ccc(N4CCN(C)CC4)cc3)nc2n1-c1cccc(C(C)(C)O)n1 [AZD1775] (first compound max 10 µM, partner max 1 µM)
2. CCc1c2c(nc3ccc(O)cc13)-c1cc3c(c(=O)n1C2)COC(=O)[C@]3(O)CC [SN-38] + CN(C)CCCOc1ccc(-c2ccc3ncc4c(c3c2)n(C2CCOCC2)c(=O)n4C)cn1 [AZD0156] (first compound max 0.3 µM, 7x7, partner max 1 µM)

Reply text:
1: -0.0266; 2: -0.0316
